- System: 521955-158-R2-J5-PDC complex spheroids, viability;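 note: spheroids also contain HUVEC endothelial cells and mesenchymal stem cells as stroma; compound exposure lasted seven days before the viability read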
- Assay Procedure: Anticancer human tumor 521955-158-R2-J5-PDC patient-derived pancreatic carcinoma cell line growth inhibition [RAS]
- Recorded Conditions: second compound 0.3 µM; first compound 10 µM; stronger effect = lower value
Property Measured: viability, T/C (%)
Answers are plain numbers, in %.

| Compound | Units Of Measure | viability, T/C |
| --- | --- | --- |
| NC1c2ccccc2OC12CCN(c1cnc3c(N4CCCc5ncccc54)n[nH]c3n1)CC2 (centres undefined) + CCn1c(-c2cc(N3CCN(C)CC3)cnc2C(C)OC)c2c3cc(ccc31)-c1csc(n1)CC(NC(=O)C1CC1C)C(=O)N1CCCC(N1)C(=O)OCC(C)(C)C2 | % | 3.2 |

Answer for every listed entry: what is its viability, T/C? The entries follow.
1. Cc1nc(N2CCC3(CC2)COC(C)C3N)c(CO)nc1Sc1ccnc(N)c1Cl (centres undefined) + CCn1c(-c2cccnc2C(C)OC)c2c3cc(ccc31)N1CCOC(CC(NC(=O)C(C(C)C)N(C)C(=O)C3(F)CCN(C(=O)C#CC(C)(C)N(C)C)CC3)C(=O)N3CCCC(N3)C(=O)OCC(C)(C)C2)C1
2. NC1c2ccccc2OC12CCN(c1cnc3c(N4CCCc5ncccc54)n[nH]c3n1)CC2 (centres undefined) + CCn1c(-c2cccnc2C(C)OC)c2c3cc(ccc31)N1CCOC(CC(NC(=O)C(C(C)C)N(C)C(=O)C3(F)CCN(C(=O)C#CC(C)(C)N(C)C)CC3)C(=O)N3CCCC(N3)C(=O)OCC(C)(C)C2)C1
3. CC(Nc1ccc2c(c1)OCCn1cc(N3C(=O)OCC3C(F)F)nc1-2)C(N)=O (centres undefined) + CCn1c(-c2cc(N3CCN(C)CC3)cnc2C(C)OC)c2c3cc(ccc31)-c1csc(n1)CC(NC(=O)C1CC1C)C(=O)N1CCCC(N1)C(=O)OCC(C)(C)C2

1. 42.8
2. 42.9
3. 0.45
